target: T1, SARS-CoV-2 RBD-mFc (SARS-CoV-2, UniProt P0DTC2 319-541); test: Octet QKe BLI, 1:1 global fit
T1 construct: range 319-541
Provide the reported kon of each item.
Give bare numbers, in M⁻¹ s⁻¹.

SA4055 (antibody, V domains shown) VH: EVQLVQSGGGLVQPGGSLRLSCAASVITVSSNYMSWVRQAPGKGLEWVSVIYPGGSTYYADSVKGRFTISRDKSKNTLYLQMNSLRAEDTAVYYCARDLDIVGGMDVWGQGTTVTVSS VL: QSALTQPASVSGSPGQSITISCTGTSSDVGDYNLVSWYQQHPGKAPKVMIYDVSHRPSGVSNRFSGSKSGNTASLTISGLQAEDEADYYCSSYTSSTTVVFGGGTKLTVL	387000

Now look at this entry.
Given the binder SA4057 (antibody, V domains shown) VH: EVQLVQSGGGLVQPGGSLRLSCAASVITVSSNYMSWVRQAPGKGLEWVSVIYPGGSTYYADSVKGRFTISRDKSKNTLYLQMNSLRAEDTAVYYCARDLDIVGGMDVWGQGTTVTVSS VL: QLVLTQPPSVSGAPGQRVTISCTGSSSNIGAPHDVHWYQQLPGTAPRLLIYANNNRPSGVPDRFSGSKSGTSASLAITGLQDEDEADYYCQSYDSSLRAYVFGTGTKVTVL , what is its reported kon?
175000

Reference for the values: patent KR20220054080A
